tested system: human mineralocorticoid receptor protein (MR) (Homo sapiens)
Construct: made in house; host or cells: Spodoptera frugiperda Sf21 insect cells (baculovirus)
Sequence (P08235 whole entry): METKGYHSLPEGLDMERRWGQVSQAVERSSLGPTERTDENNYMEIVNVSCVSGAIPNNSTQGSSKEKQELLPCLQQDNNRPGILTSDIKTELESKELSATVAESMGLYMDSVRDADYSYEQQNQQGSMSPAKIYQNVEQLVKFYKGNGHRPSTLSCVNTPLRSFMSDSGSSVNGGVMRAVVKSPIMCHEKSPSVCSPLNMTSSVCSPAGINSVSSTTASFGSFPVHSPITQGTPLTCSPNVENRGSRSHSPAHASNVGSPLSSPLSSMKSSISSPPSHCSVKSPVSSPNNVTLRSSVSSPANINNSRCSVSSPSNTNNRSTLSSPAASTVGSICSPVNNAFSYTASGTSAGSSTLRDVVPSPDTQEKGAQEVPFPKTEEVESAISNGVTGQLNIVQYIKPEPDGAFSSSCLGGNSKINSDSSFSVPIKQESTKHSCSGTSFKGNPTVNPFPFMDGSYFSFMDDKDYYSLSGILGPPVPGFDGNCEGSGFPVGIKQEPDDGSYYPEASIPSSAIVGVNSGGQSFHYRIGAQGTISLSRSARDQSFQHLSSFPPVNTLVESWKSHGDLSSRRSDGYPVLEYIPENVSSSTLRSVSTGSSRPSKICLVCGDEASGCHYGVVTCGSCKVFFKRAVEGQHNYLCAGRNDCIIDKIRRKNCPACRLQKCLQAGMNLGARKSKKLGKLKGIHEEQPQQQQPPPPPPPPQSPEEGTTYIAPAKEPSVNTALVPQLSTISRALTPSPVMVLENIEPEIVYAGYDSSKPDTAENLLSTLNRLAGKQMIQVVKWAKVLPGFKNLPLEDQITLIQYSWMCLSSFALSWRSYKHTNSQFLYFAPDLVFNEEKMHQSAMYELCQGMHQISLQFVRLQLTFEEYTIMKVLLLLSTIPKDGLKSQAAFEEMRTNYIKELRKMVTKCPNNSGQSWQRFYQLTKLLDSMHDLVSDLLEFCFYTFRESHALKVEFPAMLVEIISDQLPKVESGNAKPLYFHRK
assay remarks: Mineralocorticoid receptor binding assay ([3H]aldosterone competition, MR lysate)
condition summary: baculovirus-expressed MR lysate from Sf21 cells; 2-4 nM [3H]aldosterone; 16 hours at 4° C.; Cheng-Prusoff from IC50
Threshold check on Ki: strictly below 100 nM is class 1; on or above 100 nM is class 0.

{"compound": "CC1(C)OC(=O)Nc2ccc(-c3cccc(C(F)(F)F)c3)c(Cl)c21 [Compound 102]", "assigned category": "class 0"}
{"compound": "O=C1Nc2ccc(-c3cccc(C(F)(F)F)c3)c(Cl)c2C(c2ccc(F)cc2)O1 (racemic) [Compound 118]", "assigned category": "class 0"}
{"compound": "CC1OC(=S)Nc2ccc(-c3cccc(C(F)(F)F)c3)c(Cl)c21 (racemic) [Compound 111]", "assigned category": "class 1"}
{"compound": "CC(=O)c1cccc(-c2ccc3c(c2Cl)C(C)(C)OC(=O)N3)c1 [Compound 103]", "assigned category": "class 0"}
{"compound": "CC1(C)OC(=S)Nc2ccc(-c3cccc(C(F)(F)F)c3)c(Cl)c21 [Compound 104]", "assigned category": "class 1"}
